# Test system: E. coli DH5α cells
# PROTOCOL_DETAILS: Penetration efficiency of TAMRA-labeled CPPs, electroporation-based method, flow cytometry
# Type: cell-based, Escherichia coli
# CONDITION_INFO: electrocompetent E. coli DH5α, 5 μg TAMRA-CPP, electroporation 1.8 kV, 20 mM Tris-HCl pH 7.5, 1 h, replicate 3
Where no end group is shown, it is not given here.
ENDPOINT_NAME: Cell penetration efficiency (TAMRA fluorescence), Electrooration - Tris buffer (A.U.)

[
  {
    "SUBSTANCE": "Rev(34-50) (TRQARRNRRRRWRERQR; also: TAMRA label, site not given here) [CPP 15, TAMRA-labeled CPP of the 98-CPP library, one of five used to evaluate delivery methods]",
    "TARGET_OR_SYSTEM": "E. coli DH5α cells",
    "MEASURED_NUMBER": 1629.96
  },
  {
    "SUBSTANCE": "R9-TAT (GRRRRRRRRRPPQ; also: TAMRA label, site not given here) [CPP 14, TAMRA-labeled CPP of the 98-CPP library, one of five used to evaluate delivery methods]",
    "TARGET_OR_SYSTEM": "E. coli DH5α cells",
    "MEASURED_NUMBER": 906.944
  },
  {
    "SUBSTANCE": "Penetratin (RQIKIWFPNRRMKWKK; also: TAMRA label, site not given here) [CPP 17, TAMRA-labeled CPP of the 98-CPP library, one of five used to evaluate delivery methods]",
    "TARGET_OR_SYSTEM": "E. coli DH5α cells",
    "MEASURED_NUMBER": 1028.54
  },
  {
    "SUBSTANCE": "ppTG1 (GLFKALLKLLKSLWKLLLKA; also: TAMRA label, position not given here) [CPP 16, TAMRA-labeled CPP of the 98-CPP library, one of five used to evaluate delivery methods]",
    "TARGET_OR_SYSTEM": "E. coli DH5α cells",
    "MEASURED_NUMBER": 322.066
  }
]

----------
# System: E. coli DH5α cells
# PROTOCOL_DETAILS: Penetration efficiency of TAMRA-labeled CPPs, chemical (CaCl2) treatment method, flow cytometry
# Assay type: cell-based, Escherichia coli
# CONDITION_INFO: 50 mM CaCl2-treated E. coli DH5α, 5 μg TAMRA-CPP, 20 mM Tris-Cl pH 7.5, 1 h, replicate 2
Where no end group is shown, it is not given here.
ENDPOINT_NAME: Cell penetration efficiency (TAMRA fluorescence), Chemical (CaCl2) method - Tris buffer (A.U.)

[
  {
    "SUBSTANCE": "ppTG1 (GLFKALLKLLKSLWKLLLKA; also: TAMRA label, position not given here) [CPP 16, TAMRA-labeled CPP of the 98-CPP library, one of five used to evaluate delivery methods]",
    "SCALE_UNIT": "A.U.",
    "MEASURED_NUMBER": 38.28
  },
  {
    "SUBSTANCE": "Rev(34-50) (TRQARRNRRRRWRERQR; also: TAMRA label, site not given here) [CPP 15, TAMRA-labeled CPP of the 98-CPP library, one of five used to evaluate delivery methods]",
    "SCALE_UNIT": "A.U.",
    "MEASURED_NUMBER": 97.4338
  },
  {
    "SUBSTANCE": "Penetratin (RQIKIWFPNRRMKWKK; also: TAMRA label, site not given here) [CPP 17, TAMRA-labeled CPP of the 98-CPP library, one of five used to evaluate delivery methods]",
    "SCALE_UNIT": "A.U.",
    "MEASURED_NUMBER": 24.3955
  },
  {
    "SUBSTANCE": "R9-TAT (GRRRRRRRRRPPQ; also: TAMRA label, site not given here) [CPP 14, TAMRA-labeled CPP of the 98-CPP library, one of five used to evaluate delivery methods]",
    "SCALE_UNIT": "A.U.",
    "MEASURED_NUMBER": 278.483
  }
]

----------
// reported Cell penetration efficiency (TAMRA fluorescence), Chemical (CaCl2) method - Tris buffer for each item listed
# Tested on: E. coli DH5α cells
# PROTOCOL_DETAILS: Penetration efficiency of TAMRA-labeled CPPs, chemical (CaCl2) treatment method, flow cytometry
# Format: cell-based, Escherichia coli
# CONDITION_INFO: 50 mM CaCl2-treated E. coli DH5α, 5 μg TAMRA-CPP, 20 mM Tris-Cl pH 7.5, 1 h, replicate 1
Where no end group is shown, it is not given here.
ENDPOINT_NAME: Cell penetration efficiency (TAMRA fluorescence), Chemical (CaCl2) method - Tris buffer (A.U.)

[
  {
    "SUBSTANCE": "ppTG1 (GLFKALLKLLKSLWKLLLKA; also: TAMRA label, position not given here) [CPP 16, TAMRA-labeled CPP of the 98-CPP library, one of five used to evaluate delivery methods]",
    "MEASURED_NUMBER": 251.992
  },
  {
    "SUBSTANCE": "Rev(34-50) (TRQARRNRRRRWRERQR; also: TAMRA label, site not given here) [CPP 15, TAMRA-labeled CPP of the 98-CPP library, one of five used to evaluate delivery methods]",
    "MEASURED_NUMBER": 103.028
  },
  {
    "SUBSTANCE": "Penetratin (RQIKIWFPNRRMKWKK; also: TAMRA label, site not given here) [CPP 17, TAMRA-labeled CPP of the 98-CPP library, one of five used to evaluate delivery methods]",
    "MEASURED_NUMBER": 29.4497
  },
  {
    "SUBSTANCE": "R9-TAT (GRRRRRRRRRPPQ; also: TAMRA label, site not given here) [CPP 14, TAMRA-labeled CPP of the 98-CPP library, one of five used to evaluate delivery methods]",
    "MEASURED_NUMBER": 247.778
  }
]

----------
# System: E. coli DH5α cells
# PROTOCOL_DETAILS: Penetration efficiency of TAMRA-labeled CPPs, electroporation-based method, flow cytometry
# Assay type: cell-based, Escherichia coli
# CONDITION_INFO: library CPPs, E. coli, electroporation, Tris buffer pH 7.5, 1 h, mean of n = 3–5
Where no end group is shown, it is not given here.
# Lookup of reported Penetration efficiency (TAMRA fluorescence in E. coli) keyed by entry
ENDPOINT_NAME: Penetration efficiency (TAMRA fluorescence in E. coli) (A.U.)

[
  {
    "SUBSTANCE": "Tat49-57 (RKKRRQRRR; also: TAMRA label, site not given here) [CPP 45, TAMRA-labeled CPP of the 98-CPP library]",
    "TARGET_OR_SYSTEM": "E. coli DH5α cells",
    "SCALE_UNIT": "A.U.",
    "MEASURED_NUMBER": 2837.5
  },
  {
    "SUBSTANCE": "Tat (GRKKRRQRRRPPQRKC; also: TAMRA label, site not given here) [CPP 67, TAMRA-labeled CPP of the 98-CPP library]",
    "TARGET_OR_SYSTEM": "E. coli DH5α cells",
    "SCALE_UNIT": "A.U.",
    "MEASURED_NUMBER": 2821.8
  },
  {
    "SUBSTANCE": "CTP (GGRRARRRRRR; also: TAMRA label, site not given here) [CPP 96, TAMRA-labeled CPP of the 98-CPP library]",
    "TARGET_OR_SYSTEM": "E. coli DH5α cells",
    "SCALE_UNIT": "A.U.",
    "MEASURED_NUMBER": 3688.0
  },
  {
    "SUBSTANCE": "TatsMTS (TMG) (GRKKRRQRRRMVSAL; also: TAMRA label, site not given here) [CPP 71, TAMRA-labeled CPP of the 98-CPP library]",
    "TARGET_OR_SYSTEM": "E. coli DH5α cells",
    "SCALE_UNIT": "A.U.",
    "MEASURED_NUMBER": 3266.3
  },
  {
    "SUBSTANCE": "Tat48-57 (GRKKRRQRRR; also: TAMRA label, site not given here) [CPP 70, TAMRA-labeled CPP of the 98-CPP library]",
    "TARGET_OR_SYSTEM": "E. coli DH5α cells",
    "SCALE_UNIT": "A.U.",
    "MEASURED_NUMBER": 4043.3
  }
]

----------
# Test system: E. coli DH5α cells
# PROTOCOL_DETAILS: Penetration efficiency of TAMRA-labeled CPPs, electroporation-based method, flow cytometry
# Assay type: cell-based, Escherichia coli
# CONDITION_INFO: electrocompetent E. coli DH5α, 5 μg TAMRA-CPP, electroporation 1.8 kV, 20 mM Tris-HCl pH 7.5, 1 h, replicate 1
Where no end group is shown, it is not given here.
ENDPOINT_NAME: Cell penetration efficiency (TAMRA fluorescence), Electrooration - Tris buffer (A.U.)

[
  {
    "SUBSTANCE": "ppTG1 (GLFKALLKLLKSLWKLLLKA; also: TAMRA label, position not given here) [CPP 16, TAMRA-labeled CPP of the 98-CPP library, one of five used to evaluate delivery methods]",
    "MEASURED_NUMBER": 299.308
  },
  {
    "SUBSTANCE": "Penetratin (RQIKIWFPNRRMKWKK; also: TAMRA label, site not given here) [CPP 17, TAMRA-labeled CPP of the 98-CPP library, one of five used to evaluate delivery methods]",
    "MEASURED_NUMBER": 794.592
  },
  {
    "SUBSTANCE": "R9-TAT (GRRRRRRRRRPPQ; also: TAMRA label, site not given here) [CPP 14, TAMRA-labeled CPP of the 98-CPP library, one of five used to evaluate delivery methods]",
    "MEASURED_NUMBER": 1652.65
  },
  {
    "SUBSTANCE": "Rev(34-50) (TRQARRNRRRRWRERQR; also: TAMRA label, site not given here) [CPP 15, TAMRA-labeled CPP of the 98-CPP library, one of five used to evaluate delivery methods]",
    "MEASURED_NUMBER": 1419.77
  }
]
